Source: patent US11905231B1

# assayInfo: physchem
# reportedConditions: pH 6.8 aqueous buffer, 37 °C, thermodynamic from solid
measuredParameter: solubility at 24 h
Note: state the figure and append the unit.

Ask: Determine its reported solubility at 24 h: C#CCOc1ccc(/C=C/C(=O)Nc2ccccc2C(=O)O)cc1OC [Free form]
Result: 51 µg/mL

----------
# assayInfo: Oral pharmacokinetic study in Sprague-Dawley rats
# reportedConditions: rat, single oral dose 20 mg/kg, 4 h post dose
measuredParameter: Mean concentration (plasma) (µg/mL)
Response body: numeric value in µg/mL, unit text excluded.

Ask: Determine its reported Mean concentration (plasma): C#CCOc1ccc(/C=C/C(=O)Nc2ccccc2C(=O)O)cc1OC.CC(C)(C)N [tert-Butylamine (TBA) salt]
Result: 17.133

Ask: Determine its reported Mean concentration (plasma): C#CCOc1ccc(/C=C/C(=O)Nc2ccccc2C(=O)[O-])cc1OC.[K+] [Potassium salt]
Result: 17

Ask: Determine its reported Mean concentration (plasma): C#CCOc1ccc(/C=C/C(=O)Nc2ccccc2C(=O)O)cc1OC.N [Ammonium salt]
Result: 20.833

Ask: Determine its reported Mean concentration (plasma): C#CCOc1ccc(/C=C/C(=O)Nc2ccccc2C(=O)O)cc1OC.NC(CO)(CO)CO [Tris salt]
Result: 14.467

----------
So I've got a bunch of molecules here, and I need their Mean concentration (plasma) values.
# assayInfo: Oral pharmacokinetic study in Sprague-Dawley rats
# reportedConditions: rat, single oral dose 20 mg/kg, 1 h post dose
Note: state the figure and append the unit.

Ask: Determine its reported Mean concentration (plasma): C#CCOc1ccc(/C=C/C(=O)Nc2ccccc2C(=O)O)cc1OC.NC(CO)(CO)CO [Tris salt]
Result: 36833 ng/mL

Ask: Determine its reported Mean concentration (plasma): C#CCOc1ccc(/C=C/C(=O)Nc2ccccc2C(=O)O)cc1OC.CC(C)(C)N [tert-Butylamine (TBA) salt]
Result: 26967 ng/mL

Ask: Determine its reported Mean concentration (plasma): C#CCOc1ccc(/C=C/C(=O)Nc2ccccc2C(=O)O)cc1OC.N [Ammonium salt]
Result: 44033 ng/mL

Ask: Determine its reported Mean concentration (plasma): C#CCOc1ccc(/C=C/C(=O)Nc2ccccc2C(=O)[O-])cc1OC.[K+] [Potassium salt]
Result: 34467 ng/mL

----------
# assayInfo: Oral pharmacokinetic study in Sprague-Dawley rats
# reportedConditions: rat, single oral dose 20 mg/kg, plasma, mean
measuredParameter: tmax (h)
Response body: numeric value in h, unit text excluded.

Ask: Determine its reported tmax: C#CCOc1ccc(/C=C/C(=O)Nc2ccccc2C(=O)O)cc1OC.NC(CO)(CO)CO [Tris salt]
Result: 1.33

Ask: Determine its reported tmax: C#CCOc1ccc(/C=C/C(=O)Nc2ccccc2C(=O)O)cc1OC.N [Ammonium salt]
Result: 1.00

Ask: Determine its reported tmax: C#CCOc1ccc(/C=C/C(=O)Nc2ccccc2C(=O)[O-])cc1OC.[K+] [Potassium salt]
Result: 1.33

Ask: Determine its reported tmax: C#CCOc1ccc(/C=C/C(=O)Nc2ccccc2C(=O)O)cc1OC.CC(C)(C)N [tert-Butylamine (TBA) salt]
Result: 1.67

----------
So I've got a bunch of compounds here, and I need their Mean concentration (plasma) values.
# assayInfo: Oral pharmacokinetic study in Sprague-Dawley rats
# reportedConditions: rat, single oral dose 20 mg/kg, 2 h post dose
Response body: numeric value in ng/mL, unit text excluded.

Ask: Determine its reported Mean concentration (plasma): C#CCOc1ccc(/C=C/C(=O)Nc2ccccc2C(=O)O)cc1OC.NC(CO)(CO)CO [Tris salt]
Result: 31067

Ask: Determine its reported Mean concentration (plasma): C#CCOc1ccc(/C=C/C(=O)Nc2ccccc2C(=O)O)cc1OC.CC(C)(C)N [tert-Butylamine (TBA) salt]
Result: 29167

Ask: Determine its reported Mean concentration (plasma): C#CCOc1ccc(/C=C/C(=O)Nc2ccccc2C(=O)[O-])cc1OC.[K+] [Potassium salt]
Result: 27200

Ask: Determine its reported Mean concentration (plasma): C#CCOc1ccc(/C=C/C(=O)Nc2ccccc2C(=O)O)cc1OC.N [Ammonium salt]
Result: 35033
